experiment: modulators of S6 phosphorylation in cells, primary screen, cell-based, A549, cytoblot, luminescence, serum-stimulated (AID 1158); settings: A549 phospho-S6 cytoblot, 5 h, higher = more signal;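 further: serum-stimulated A549 lung adenocarcinoma cells; signal is phosphorylated S6 detected by cytoblot immunostaining with HRP secondary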
Reported z-score by item:
Write the value as a bare number.

| COMPOUND | METRIC NAME | MEASURED RESULT |
| --- | --- | --- |
| O=C1OCCC=C[C@H]2OC34C=CCN(c5ccc(Cl)cc5)C(=O)[C@H]3N(CCO)C(=O)[C@@H]4C12 (stereo partly specified) | z-score | -0.509 |
| COC(=O)[C@@]1(CCC(=O)OC(C)(C)C)N=C(c2ccc(OCCCO)cc2)O[C@H]1c1ccccc1CN=[N+]=[N-] | z-score | -0.184 |

# next compound below
So for C=CCC(OC(C)=O)[C@@H]1[C@@H](N(Cc2ccc(-c3ccccc3)cc2)C(=O)c2ccc(-c3ccccc3)cc2)c2cc(OCCCO)ccc2N1C(=O)c1ccc2ccccc2n1 (stereo partly specified) , the logged z-score turned out to be 0.364
